target: human F508del-CFTR (Homo sapiens, UniProt P13569, DEL508-508); assay: F508del-CFTR cell surface expression (corrector activity), DiscoveRx ß-galactosidase complementation chemiluminescence assay in recombinant U2OS cell line; details: EC50, F508del-CFTR cell surface expression, U2OS cells, 16h compound incubation; geomean of several measurements;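 also: U2OS cells co-expressing ProLink-tagged F508del-CFTR and a membrane-anchored enzyme acceptor, where more surface CFTR restores β-galactosidase activity measured by chemiluminescence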
Sequence (P13569 with tags, fused parts or gaps DEL508-508): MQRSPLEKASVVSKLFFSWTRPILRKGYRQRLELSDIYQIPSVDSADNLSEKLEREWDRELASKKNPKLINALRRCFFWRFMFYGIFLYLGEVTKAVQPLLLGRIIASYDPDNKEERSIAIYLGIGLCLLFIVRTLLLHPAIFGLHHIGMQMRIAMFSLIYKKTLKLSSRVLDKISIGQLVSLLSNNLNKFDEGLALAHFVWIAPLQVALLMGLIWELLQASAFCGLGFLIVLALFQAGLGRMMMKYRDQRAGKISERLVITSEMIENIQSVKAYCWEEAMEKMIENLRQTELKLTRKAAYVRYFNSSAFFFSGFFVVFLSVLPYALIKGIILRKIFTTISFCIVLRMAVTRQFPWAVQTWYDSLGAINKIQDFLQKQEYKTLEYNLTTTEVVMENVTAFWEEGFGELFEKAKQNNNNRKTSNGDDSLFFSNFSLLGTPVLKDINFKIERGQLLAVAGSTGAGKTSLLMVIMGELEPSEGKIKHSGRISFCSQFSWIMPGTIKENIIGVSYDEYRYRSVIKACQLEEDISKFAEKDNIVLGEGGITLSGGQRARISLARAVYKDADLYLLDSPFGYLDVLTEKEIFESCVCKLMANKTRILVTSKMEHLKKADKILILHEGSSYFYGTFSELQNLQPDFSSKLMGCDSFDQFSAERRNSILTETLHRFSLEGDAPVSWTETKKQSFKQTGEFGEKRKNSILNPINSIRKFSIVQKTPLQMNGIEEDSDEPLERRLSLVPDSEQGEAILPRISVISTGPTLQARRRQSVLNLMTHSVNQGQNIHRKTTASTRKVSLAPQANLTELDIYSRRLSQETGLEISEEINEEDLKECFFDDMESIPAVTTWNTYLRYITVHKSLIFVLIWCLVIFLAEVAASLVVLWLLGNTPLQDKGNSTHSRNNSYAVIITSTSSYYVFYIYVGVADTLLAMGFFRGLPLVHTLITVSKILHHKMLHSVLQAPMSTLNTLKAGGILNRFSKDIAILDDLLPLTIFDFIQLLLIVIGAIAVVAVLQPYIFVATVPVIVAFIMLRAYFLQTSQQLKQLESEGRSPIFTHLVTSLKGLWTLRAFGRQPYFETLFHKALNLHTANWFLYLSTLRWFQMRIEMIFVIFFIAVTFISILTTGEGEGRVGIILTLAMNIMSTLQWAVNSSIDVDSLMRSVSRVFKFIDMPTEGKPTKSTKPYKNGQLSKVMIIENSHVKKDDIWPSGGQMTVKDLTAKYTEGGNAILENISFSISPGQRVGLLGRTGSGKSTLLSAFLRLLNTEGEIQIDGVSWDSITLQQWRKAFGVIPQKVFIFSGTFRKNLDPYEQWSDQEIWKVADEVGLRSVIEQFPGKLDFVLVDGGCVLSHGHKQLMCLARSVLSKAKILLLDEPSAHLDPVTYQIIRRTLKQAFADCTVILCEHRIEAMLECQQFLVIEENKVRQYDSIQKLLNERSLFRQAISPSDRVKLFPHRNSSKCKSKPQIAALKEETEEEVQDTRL
Below, each entry is listed with its recorded pEC50.
Note: pEC50 values are expressed as the negative base-10 logarithm of concentration in M.

Reference set, count: 5
COc1noc(CCNC(=O)[C@@H]2CC(=O)N(C)[C@@H](CC(C)C)C(=O)N(C)[C@H](CC(F)F)C(=O)N[C@H](Cc3ccccc3)COc3cc(C)nc(OC)c3C(=O)N2)c1F [Example 968]: 6.65
CC(C)C[C@H]1C(=O)N(C)C2(CC(F)(F)C2)C(=O)N[C@H](Cc2ccccc2)COc2cnc3ccc(F)cc3c2C(=O)N[C@H](C(=O)NCCn2nnc(C3CC3)n2)CC(=O)N1C [Example 838]: 6.93
COc1nc(C)cc2c1C(=O)N[C@H](C(=O)NCCn1nnc(C3CC3)n1)CC(=O)N(C)[C@@H](CC(C)C)C(=O)N(C)[C@H](CC(F)(F)F)C(=O)N[C@H](Cc1ccccc1)CO2 [Example 806]: 6.63
COc1nccc2c1C(=O)N[C@H](C(=O)NCCc1noc(C3CC3)n1)CC(=O)N(C)[C@@H](CC(C)C)C(=O)N(C)[C@H](CCc1nc(C3CC3)no1)C(=O)N[C@H](Cc1ccccc1)CO2 [Example 864]: 6.21
Cc1cc2c3c(ccc2cn1)OC[C@@H](Cc1ccccc1)NC(=O)[C@@H](CC(F)(F)F)N(C)C(=O)[C@H](CC(C)C)N(C)C(=O)C[C@@H](C(=O)NCCc1nc(C2CC2)no1)NC3=O [Example 951]: 6.78

Query block: What value of pEC50 has been recorded for this entry: Cc1cc2c3c(ccc2cn1)OC[C@@H](Cc1ccccc1)NC(=O)C1(CC(F)(F)C1)N(C)C(=O)[C@H](CC(C)C)N(C)C(=O)C[C@@H](C(=O)NCCn1nnc(C2CC2)n1)NC3=O [Example 955]
Result block: 6.42

Query block: What does the record list as pEC50 for COc1cc(CCNC(=O)[C@@H]2CC(=O)N(C)[C@@H](CC(C)C)C(=O)N(C)[C@H](Cc3nc(C(F)(F)F)no3)C(=O)N[C@H](Cc3ccccc3)COc3ccnc(OC)c3C(=O)N2)on1 [Example 948] ?
Result block: 7.21

Query block: Which pEC50 value belongs to COc1noc(CCNC(=O)[C@@H]2CC(=O)N(C)[C@@H](CC(C)C)C(=O)N3CCCC[C@@H]3C(=O)N[C@H](Cc3ccccc3)COc3cc(C)c4ncccc4c3C(=O)N2)n1 [Example 920] ?
Result block: 6.76

Query block: Look up pEC50 for this compound: Cc1cc2c3c(ccc2cn1)OC[C@@H](Cc1ccccc1)NC(=O)[C@@H](CC(F)(F)F)N(C)C(=O)[C@H](CC(C)C)N(C)C(=O)C[C@@H](C(=O)NCCc1cc(C2CC2)on1)NC3=O [Example 958]
Result block: 6.47

Query block: Which pEC50 value belongs to COc1noc(CCNC(=O)[C@@H]2CC(=O)N(C)[C@@H](CC(C)C)C(=O)N(C)[C@H](Cc3nc(C(F)(F)F)no3)C(=O)N[C@H](Cc3ccccc3)COc3ccc4ncc(F)cc4c3C(=O)N2)n1 [Example 934] ?
Result block: 7.43
